These measurements were taken from patent US5648359A.

- Test system: TNF production or secretion in mouse peritoneal macrophages
- Method Notes: Inhibitory effect on TNF production or secretion in mouse peritoneal macrophages (30 μM)
- Assay type: cell-based, mouse (BALB/c)
- Settings: Mus musculus; 30 μM compound; LPS 10 μg/ml, 18 hours; TNF by L929 bioassay
Experimental Readout: inhibition at 30 µM (%)
Lab book: enter the figure in %, no units written.

Guide cases for inhibition at 30 µM, answers given:
- Smiles Structure: "CC(=O)N1C2Cc3cc4c(cc3C1Cc1cc3c(cc12)OCCO3)OCCO4"
  inhibition at 30 µM, %: 64
- Smiles Structure: "OCCN1C2Cc3cc4c(cc3C1Cc1cc3c(cc12)OCO3)OCO4"
  inhibition at 30 µM, %: 65
- Smiles Structure: "COCC(=O)N1C2Cc3cc4c(cc3C1Cc1cc3c(cc12)OCO3)OCO4"
  inhibition at 30 µM, %: 92
- Smiles Structure: "COCCN1C2Cc3cc4c(cc3C1Cc1cc3c(cc12)OCO3)OCO4"
  inhibition at 30 µM, %: 11
- Smiles Structure: "C=CCN1C2Cc3cc4c(cc3C1Cc1cc3c(cc12)OCO3)OCO4"
  inhibition at 30 µM, %: 12

Provide only the value of recorded inhibition at 30 µM for `CNC(=O)N1C2Cc3cc4c(cc3C1Cc1cc3c(cc12)OCO3)OCO4` 90

Answer with reported inhibition at 30 µM of `CCOC(=O)N1C2Cc3cc4c(cc3C1Cc1cc3c(cc12)OCO3)OCO4` 68

Given the molecule `C=CCCCN1C2Cc3cc4c(cc3C1Cc1cc3c(cc12)OCO3)OCO4` , write its reported inhibition at 30 µM. -5

Supply recorded inhibition at 30 µM for `CCCN1C2Cc3cc4c(cc3C1Cc1cc3c(cc12)OCO3)OCO4` here. 31

---

Recorded measurements of inhibition at 30 µM, one per entry
- System: TNF production or secretion in mouse peritoneal macrophages
- Method Notes: Inhibitory effect on TNF production or secretion in mouse peritoneal macrophages (30 μM)
- Assay type: cell-based, mouse (BALB/c)
- Settings: Mus musculus; 30 μM compound; LPS 10 μg/ml, 18 hours; TNF by L929 bioassay
Where a name gives a salt, the structure may show the parent alone.
Write the value in % as a bare number.

# annotated cases, reported inhibition at 30 µM shown
- Molecule: "Fc1ccc(CCCN2C3Cc4cc5c(cc4C2Cc2cc4c(cc23)OCO4)OCO5)cc1 [Example 4, hydrochloride]"
  Assay Value: 18
- Molecule: "O=C(c1ccccc1)N1C2Cc3cc4c(cc3C1Cc1cc3c(cc12)OCO3)OCO4"
  Assay Value: 39
- Molecule: "NCCCCN1C2Cc3cc4c(cc3C1Cc1cc3c(cc12)OCO3)OCO4"
  Assay Value: -44

Let us examine a further case.
For `c1c2c(cc3c1OCO3)C1Cc3cc4c(cc3C(C2)N1CCN1CCCCC1)OCO4` , write its inhibition at 30 µM. 56

---

- System: TNF production or secretion in mouse peritoneal macrophages
- Method Notes: Inhibitory effect on TNF production or secretion in mouse peritoneal macrophages (30 μM)
- Assay type: cell-based, mouse (BALB/c)
- Settings: Mus musculus; 30 μM compound; LPS 10 μg/ml, 18 hours; TNF by L929 bioassay
Counter-ions that a name gives are not always drawn.
Recorded inhibition at 30 µM values for a group of compounds are listed next.
Answer format: numeric, % implied, no suffix.

- Compound: "CCN1C2Cc3cc4c(cc3C1Cc1cc3c(cc12)OCO3)OCO4 [Example 2, hydrochloride]"
  Study System: "TNF production or secretion in mouse peritoneal macrophages"
  Uom: "%"
  inhibition at 30 µM: 72

Jot down inhibition at 30 µM (TNF production or secretion in mouse peritoneal macrophages) of c1c2c(cc3c1OCO3)C1Cc3cc4c(cc3C(C2)N1)OCO4 [Example 13] . 78

Retrieve inhibition at 30 µM on TNF production or secretion in mouse peritoneal macrophages; query COC(=O)CCN1C2Cc3cc4c(cc3C1Cc1cc3c(cc12)OCO3)OCO4 [Example 36] -24

Write down the reported inhibition at 30 µM (system: TNF production or secretion in mouse peritoneal macrophages) of CCCCCOC(=O)N1C2Cc3cc4c(cc3C1Cc1cc3c(cc12)OCO3)OCO4 [Example 25] 46

Give inhibition at 30 µM; test system TNF production or secretion in mouse peritoneal macrophages; compound c1c2c(cc3c1OCCO3)C1Cc3cc4c(cc3C(C2)N1)OCCO4 [Example 14] 63

Retrieve inhibition at 30 µM on TNF production or secretion in mouse peritoneal macrophages; query O=C(O)C(=O)N1C2Cc3cc4c(cc3C1Cc1cc3c(cc12)OCO3)OCO4 [Example 46] 6

Send back TNF production or secretion in mouse peritoneal macrophages inhibition at 30 µM of CCOC(=O)CN1C2Cc3cc4c(cc3C1Cc1cc3c(cc12)OCO3)OCO4 [Example 37] only. 19

Recall the reported inhibition at 30 µM of CCCCCC(=O)N1C2Cc3cc4c(cc3C1Cc1cc3c(cc12)OCO3)OCO4 [Example 19] on TNF production or secretion in mouse peritoneal macrophages and write it down. 16

Print TNF production or secretion in mouse peritoneal macrophages inhibition at 30 µM for NCCN1C2Cc3cc4c(cc3C1Cc1cc3c(cc12)OCO3)OCO4 [Example 50] . 64
